The measured values listed here are drawn from patent US12371454B2.

Please go through the items and note down their pIC50.
SYSTEM UNDER TEST: Kras and SOS1 (biotin-tagged human Kras loaded with GDP, His-tagged human SOS1) (Homo sapiens, UniProt P01116, G12D)
Construct: made in house; host or cells: E. coli (stated for Kras only)
Sequence (P01116 1-188 isoform P01116-2 G12D): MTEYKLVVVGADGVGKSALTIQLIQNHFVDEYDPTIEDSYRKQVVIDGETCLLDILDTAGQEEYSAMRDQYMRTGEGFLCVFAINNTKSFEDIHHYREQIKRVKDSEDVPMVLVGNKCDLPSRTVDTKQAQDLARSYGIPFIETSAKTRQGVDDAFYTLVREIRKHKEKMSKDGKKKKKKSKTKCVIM
ASSAY TEXT: Protein-protein interaction inhibition between Kras and SOS1 (KrasGl2D-SOS PPI) using AlphaScreen
Assay type: binding
CONDITIONS USED: AlphaScreen; biotin-tagged human Kras loaded with GDP, His-tagged human SOS1; read-out: KRAS G12D-SOS PPI IC50
Starred links: 1 amine or outer side, 2 acyl side, 3 side chain; linkers in the order of their positions; H or OH if unused. Positions of bridges follow the written chain, without caps; N, C: chain ends. Non-standard residues stand in square brackets, D forms with d. Residues, ends and D or L forms follow the SMILES beside them. *: point of attachment. hPhe(3-Cl-4-CF3) = N[C@@H](CCc1ccc(C(F)(F)F)c(Cl)c1)C(=O)O; NMePhe(4-CF3) = CN[C@@H](Cc1ccc(C(F)(F)F)cc1)C(=O)O; NMedβ3hAla = C[C@H](CC(=O)[*:2])N(C)[*:1]; NMehLeu = CN[C@@H](CCC(C)C)C(=O)O; NMeChg = CN[C@H](C(=O)O)C1CCCCC1; NMeD = CN[C@@H](CC(=O)O)C(=O)O; NMeL = CN[C@@H](CC(C)C)C(=O)O; NMeA = CN[C@@H](C)C(=O)O; NMeAib = CNC(C)(C)C(=O)O; Piperidide = C1CCN(*)CC1; Ac5c = NC1(C(=O)O)CCCC1; Aze = O=C(O)[C@@H]1CCN1; Sar = CNCC(=O)O
Numbers only, as −log10 of the molar value.

CC[C@H](C)[C@@H]1NC(=O)[C@H](C)N(C)C(=O)C[C@@H](C)N(C)C(=O)[C@H](CC(C)C)NC(=O)C(C)(C)N(C)C(=O)[C@H](CC(C)C)NC(=O)[C@H](CCc2ccc(C(F)(F)F)c(Cl)c2)NC(=O)CN(C)C(=O)[C@H](Cc2ccc(C(F)(F)F)cc2)N(C)C(=O)[C@@H]2CCN2C(=O)[C@H](C)N(C)C1=O [Compound 1399] (cyclo([Aze][NMePhe(4-CF3)][Sar][hPhe(3-Cl-4-CF3)]L[NMeAib]L[NMedβ3hAla][NMeA]I[NMeA])) : 7.15

Now, please, on to the next compound.
[in] Consider the compound CC[C@H](C)[C@@H]1NC(=O)[C@H](CC(C)C)N(C)C(=O)C[C@@H](C(=O)N2CCCCC2)N(C)C(=O)[C@H](C2CCCCC2)N(C)C(=O)C2(CCCC2)NC(=O)[C@@H]2CCCN2C(=O)[C@H](CCc2ccc(C(F)(F)F)c(Cl)c2)NC(=O)CN(C)C(=O)[C@H](CCC(C)C)N(C)C(=O)CN(C)C(=O)CN(C)C1=O [Compound 1830] ([NMeL]I[Sar][Sar][NMehLeu][Sar][hPhe(3-Cl-4-CF3)]P[Ac5c][NMeChg][NMeD]-Piperidide; lactam N-11) and give its measured pIC50.
[out] 8.80
